PARTICULARS: [M+H-H2O]+; instrument: DT; single field, calibrated with Agilent tune mix (Agilent)
PROPERTY: collision cross section (N2) (Å²)
Give your result in Å² as a bare value.

Recorded collision cross section (N2), per entry:
{"COMPOUND": "C[C@]12CC[C@H]3[C@@H](CC=C4C[C@@H](O)CC[C@@]43C)[C@@H]1CC[C@@H]2C(=O)CO [21-Hydroxypregnenolone]", "collision cross section (N2), Å²": 178.4}
{"COMPOUND": "CNCC(O)c1ccc(O)cc1 (centres undefined) [Synephrine]", "collision cross section (N2), Å²": 134.4}
{"COMPOUND": "Nc1ccccc1C(=O)O [Anthranilic acid]", "collision cross section (N2), Å²": 118.8}

Given the compound COc1cc(/C=C/CO)cc(OC)c1O [Sinapyl alcohol] , what is its reported collision cross section (N2)? 136.5
